Numbers sourced from ChEMBL document CHEMBL3243921.

Listed below: selectivity ratio values for each entry.
experiment: Therapeutic index, ratio of PD50 for acute toxicity in po dosed mouse assessed as concentration required to produce 50% loss of righting reflex to MED25 for muscle relaxant activity in po dosed mouse assessed as increase in strychnine-induced persistant convulsive threshold; type: organism-based; conditions: in vivo, read-out: TI
Keep the answer to the number alone.

Compound: CN1CCC/C1=N\C(=O)Nc1c(Br)cccc1Br
selectivity ratio: 7
--
Compound: CCc1cccc(CC)c1NC(=O)/N=C1\CCCN1C
selectivity ratio: 1.3
--
Compound: COc1ccccc1OCC(O)COC(N)=O (stereo not given)
selectivity ratio: 3.4

Q: Value lookup for selectivity ratio; key = Cc1cccc(Cl)c1NC(=O)/N=C1\CCCN1C
A: 4.5

Q: Value lookup for selectivity ratio; key = CN1CCC/C1=N\C(=O)Nc1c(Cl)cccc1Cl
A: 5
